Target: T1, SARS-CoV-2 Spike Glycoprotein S1 (subunit 1) (SARS-CoV-2, UniProt P0DTC2 16-685)
T1 construct: also called S1 Monomer; SARS-CoV-2 S1
Test: ELISA binding titration
pEC50: −log10 of the molar value.

{"BINDER": "1-26 (antibody, V domains shown) VH: EVQLLESGGGLVQPGGSLRLSCAASGFTFSSYAISWVRQAPGKGLEWVSAISGSGYSTYYADSVKGRFTISRDNSKNTLYLQMNSLRAEDTAVYYCARGAPDSSGYYFQGEVYFDYWGQGTLVTVSS VL: QSALTQPASVSGSPGQSITISCTGTSSDVGGYNLVSWYQQHPGKAPKLMIYEGTKRPSGVSNRFSGSKSGNTASLTISGLQAEDEADYYCCSFVRSSAHVVFGGGTKLTVL", "pEC50": 7.31}
{"BINDER": "1-53 (antibody, V domains shown) VH: EVQLLESGGGLVQPGGSLRLSCAASGFTFSSYTMSWVRQAPGKGLEWVSVISGSGGSTYYADSVKGRFTISRDNSKNTLYLQMNSLRAEDTAVYYCAREGYRDYLWYFDLWGQGTLVTVSS VL: QSALTQPASVSGSPGQSITISCTGTSTDVGSYNLVSWYQQHPGKAPKLMIYEGTKRPSGVSNRFSGSKSGNTASLTISGLQAEDEADYYCCSYAGSYTSVVFGGGTKLTVL", "pEC50": 7.99}
{"BINDER": "1-33 (antibody, V domains shown) VH: EVQLLESGGGLVQPGGSLRLSCAASGFTFSSYAMIWVRQAPGKGLEWVSAISGSGGSTFYADSVKGRFTISRDNSKNTLYLQMNSLRAEDTAVYYCTRPPYGDYGDYWGQGTLVTVSS VL: QSALTQPASVSGSPGQSITISCTGTSSDVGSYNLLSWYQQHPGKAPKLMIYEASKRPSGVSNRFSGSKSGNTASLTISGLQAEDEADYYCCSYAGSRTPVVFGGGTKLTVL", "pEC50": 7.76}

Hey, just so you know, these numbers are from patent US20210395344A1.
